Where these numbers come from: patent US20200157088A1

molecular target: autotaxin (Homo sapiens, UniProt Q13822); construct: purchased Cayman 10803; assay: Autotaxin inhibitor screening assay (choline release from LPC); assay type: biochemical; conditions: inhibition of autotaxin enzyme activity at 1 μM compound; 100 μM 14:0 LPC; read-out: Inhibition
Value Type: inhibition at 1 µM

Solved cases below.
[[record]]
molecule = "CN(C(=O)OCc1cc(Cl)cc(Cl)c1)C1CCc2ccc(C3=CCN(CC(=O)N4CCCC(O)C4)CC3)cc21 (stereo not shown) [Compound 19]"
value_type = "inhibition at 1 µM"
result = "< 50%"

[[record]]
molecule = "CN(C(=O)OCc1cc(Cl)cc(Cl)c1)C1CCc2ccc(C3=CCN(C(=O)CN4C(=O)CSC4=S)CC3)cc21 (stereo not shown) [Compound 9]"
value_type = "inhibition at 1 µM"
result = "> 80%"


Requested read-out: inhibition at 1 µM. Entry: CCN(CC)C(=O)CN1CC=C(c2ccc3c(c2)C(N(C)C(=O)OCc2cc(Cl)cc(Cl)c2)CC3)CC1 (stereo not shown) [Compound 14] < 50%

One more molecule: CN(C(=O)OCc1cc(Cl)cc(Cl)c1)C1CCc2ccc(C3=CCN(C(=O)CCN4C(=O)CSC4=S)CC3)cc21 (stereo not shown) [Compound 28] 50 to 80%

Record: Cc1oc2ccc(C3=CCN(C(=O)CS(C)(=O)=O)CC3)cc2c1N(C)C(=O)OCc1cc(C(F)(F)F)cc(C(F)(F)F)c1 [Compound 103] 50 to 80%
